Reference source: ChEMBL document CHEMBL2380266

Test system: Aorta
Method Notes: Vasorelaxant activity in Wistar rat endothelium-denuded aortic rings assessed as reduction of KCl-induced contraction in presence of glibenclamide relative to control
Type: functional
Measured Quantity: Emax (%)
Give the number; % is assumed, so skip it.

Worked cases, Emax given:
CC(=O)c1ccc2c(c1)N(C1=CCCC1=O)CC(C)(C)S2; 77
CC1(C)Oc2ccc(C#N)cc2[C@@H](N2CCCC2=O)[C@@H]1O; 93

Input line: Could you please provide reported Emax for CCc1ccc2c(c1)N(C1=CCCC1=O)CC(C)(C)S2 ? Thanks!
Output line: 69

Input line: Give the reported value of Emax for this record: CC1CN(C2=CCCC2=O)c2cc(C(F)(F)F)ccc2S1 (stereo not drawn)
Output line: 63

Input line: Please look at this compound and report its Emax: CC1(C)CN(C2=CCCC2=O)c2ccccc2S1
Output line: 61

Input line: Retrieve Emax measured for Cc1ccc2c(c1)N(C1=CCCC1=O)CC(C)(C)S2 and print it.
Output line: 78

Input line: In one line, give reported Emax of the entry CC1(C)CN(C2=CCCC2=O)c2cc(C(F)(F)F)ccc2S1 .
Output line: 96

Input line: Determine its reported Emax: O=C1CCC=C1N1CCSc2ccc(C(F)(F)F)cc21
Output line: 64
